- TARGET_ENTITY: T1, human CLDN18.2 (human)
- T1 construct: also called huCLDN18.2; hCLDN18.2
- ASSAY_INFO: flow cytometry titration, HEK293T cells overexpressing CLDN18.2
Max MFI overview
Write the answer as a number in MFI, unit excluded.

BINDER	Max MFI [MFI]
hCl1b (antibody, human IgG1, kappa, V domains shown, Humanized) VH: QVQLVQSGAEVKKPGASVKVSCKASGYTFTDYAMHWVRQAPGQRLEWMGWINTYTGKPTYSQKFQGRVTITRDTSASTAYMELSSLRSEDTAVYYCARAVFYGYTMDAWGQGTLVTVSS VL: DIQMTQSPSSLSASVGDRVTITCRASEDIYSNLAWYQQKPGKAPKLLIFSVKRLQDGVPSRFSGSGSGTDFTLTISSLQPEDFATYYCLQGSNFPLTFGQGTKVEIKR	1860

Query string: Give the measured Max MFI of hCl1e (antibody, human IgG1, kappa, V domains shown, Humanized) VH: QVQLVQSGAEVKKPGASVKVSCKASGYTFTDYAMYWVRQAPGQRLEWMGWINTYTGKPTYAQKFQGRVTITRDTSASTAYMELSSLRSEDTAVYYCARAVFYGYTMDAWGQGTLVTVSS VL: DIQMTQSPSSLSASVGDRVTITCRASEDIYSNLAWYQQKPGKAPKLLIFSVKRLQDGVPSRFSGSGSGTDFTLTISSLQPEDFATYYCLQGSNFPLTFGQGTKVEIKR .
Result string: 1940

Query string: Moving on to hCl1h (antibody, human IgG1, kappa, V domains shown, Humanized) VH: QVQLVQSGAEVKKPGASVKVSCKASGYTFTDYAMYWVRQAPGQRLEWMGWINAYTGKPTYAQKFQGRVTITRDTSASTAYMELSSLRSEDTAVYYCARAVYYGYTMDAWGQGTLVTVSS VL: DIQMTQSPSSLSASVGDRVTITCRASEDIYSNLAWYQQKPGKAPKLLIYSVKRLQDGVPSRFSGSGSGTDFTLTISSLQPEDFATYYCLQGSNFPLTFGQGTKVEIKR
Result string: 2080

Query string: Moving on to hCl1i (antibody, human IgG1, kappa, V domains shown, Humanized) VH: QVQLVQSGAEVKKPGASVKVSCKASGYTFTDYAMYWVRQAPGQRLEWMGWINAYTGKPTYAQKFQGRVTITRDTSASTAYMELSSLRSEDTAVYYCARAVYYGYTMDAWGQGTLVTVSS VL: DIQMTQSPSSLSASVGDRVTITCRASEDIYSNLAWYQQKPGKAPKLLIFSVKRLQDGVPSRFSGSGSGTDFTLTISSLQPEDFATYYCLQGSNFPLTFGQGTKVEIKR
Result string: 2180
